tgt: AChE from bovine erythrocytes (Bos taurus)
Construct: 0.2 unit/ml AChE (Sigma Chemical Co. from bovine erythrocytes); purchased Sigma Chemical Co; host or cells: bovine erythrocytes
Sequence (P23795 31-614 isoform P23795-2 limits assumed): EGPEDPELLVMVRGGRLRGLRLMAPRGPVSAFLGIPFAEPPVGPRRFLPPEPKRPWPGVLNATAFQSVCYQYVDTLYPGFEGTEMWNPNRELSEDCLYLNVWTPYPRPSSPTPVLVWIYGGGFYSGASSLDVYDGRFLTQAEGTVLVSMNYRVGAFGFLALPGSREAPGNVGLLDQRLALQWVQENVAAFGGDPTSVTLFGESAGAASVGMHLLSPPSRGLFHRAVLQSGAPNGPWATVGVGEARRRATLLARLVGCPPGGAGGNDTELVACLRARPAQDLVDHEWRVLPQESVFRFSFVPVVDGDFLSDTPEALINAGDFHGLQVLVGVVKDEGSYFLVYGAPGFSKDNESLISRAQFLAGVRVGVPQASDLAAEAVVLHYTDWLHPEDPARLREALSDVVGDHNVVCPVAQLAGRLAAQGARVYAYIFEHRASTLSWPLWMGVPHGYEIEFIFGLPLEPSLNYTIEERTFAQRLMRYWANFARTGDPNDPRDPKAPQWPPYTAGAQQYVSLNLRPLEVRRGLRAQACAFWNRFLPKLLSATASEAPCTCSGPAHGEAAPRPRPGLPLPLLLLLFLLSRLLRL
experiment: Acetylcholinesterase (AChE) inhibition, Ellman colorimetric method
Format: biochemical
condition-label: AChE from bovine erythrocytes, 30° C., pH 8, 5 min preincubation, acetylthiocholine iodide substrate; read-out: IC50 AChE
observation-type: pIC50
API: returns pIC50 as number; meaning -log10 of concentration in mol/L.

// query Item O=C(NCCC1CCN(Cc2ccccc2)CC1)OCCc1c[nH]c2ccccc12 [Compound 7] has what recorded pIC50?
// result 6.00

---

Parameter: pIC50. Scope: all listed entries.
tgt: AChE from bovine erythrocytes (Bos taurus)
Construct: 0.2 unit/ml AChE (Sigma Chemical Co. from bovine erythrocytes); purchased Sigma Chemical Co; host or cells: bovine erythrocytes
experiment: Acetylcholinesterase (AChE) inhibition, Ellman colorimetric method
Assay type: biochemical
API: returns pIC50 as number; meaning -log10 of concentration in mol/L.

Check out these entries, answers already filled in.
{"compound": "Cn1cc(CC(=O)NCCC2CCN(Cc3ccccc3)CC2)c2ccccc21 [Compound 2]", "tgt": "AChE from bovine erythrocytes (Bos taurus)", "recorded-measurement": 6.40}
{"compound": "O=C(CCc1c[nH]c2ccccc12)NCCC1CCN(Cc2ccccc2)CC1 [Compound 5]", "tgt": "AChE from bovine erythrocytes (Bos taurus)", "recorded-measurement": 5.70}
{"compound": "O=C(Cc1c[nH]c2ccccc12)NCCC1CCN(Cc2ccccc2)CC1 [Compound 1]", "tgt": "AChE from bovine erythrocytes (Bos taurus)", "recorded-measurement": 6.70}
{"compound": "O=C(CCCc1c[nH]c2ccccc12)NCCC1CCN(Cc2ccccc2)CC1 [Compound 6]", "tgt": "AChE from bovine erythrocytes (Bos taurus)", "recorded-measurement": 6.52}
{"compound": "O=C(Cc1c[nH]c2ccc(Br)cc12)NCCC1CCN(Cc2ccccc2)CC1 [Compound 4]", "tgt": "AChE from bovine erythrocytes (Bos taurus)", "recorded-measurement": 6.60}

Consider now this further compound.
// query Query pIC50 on AChE from bovine erythrocytes (Bos taurus) for Cc1[nH]c2ccccc2c1CC(=O)NCCC1CCN(Cc2ccccc2)CC1 [Compound 3]
// result 6.70

The origin of these recorded values is patent US20080119521A1.
